target-entity: Prolyl endopeptidase FAP (Homo sapiens)
Sequence (Q12884 whole entry): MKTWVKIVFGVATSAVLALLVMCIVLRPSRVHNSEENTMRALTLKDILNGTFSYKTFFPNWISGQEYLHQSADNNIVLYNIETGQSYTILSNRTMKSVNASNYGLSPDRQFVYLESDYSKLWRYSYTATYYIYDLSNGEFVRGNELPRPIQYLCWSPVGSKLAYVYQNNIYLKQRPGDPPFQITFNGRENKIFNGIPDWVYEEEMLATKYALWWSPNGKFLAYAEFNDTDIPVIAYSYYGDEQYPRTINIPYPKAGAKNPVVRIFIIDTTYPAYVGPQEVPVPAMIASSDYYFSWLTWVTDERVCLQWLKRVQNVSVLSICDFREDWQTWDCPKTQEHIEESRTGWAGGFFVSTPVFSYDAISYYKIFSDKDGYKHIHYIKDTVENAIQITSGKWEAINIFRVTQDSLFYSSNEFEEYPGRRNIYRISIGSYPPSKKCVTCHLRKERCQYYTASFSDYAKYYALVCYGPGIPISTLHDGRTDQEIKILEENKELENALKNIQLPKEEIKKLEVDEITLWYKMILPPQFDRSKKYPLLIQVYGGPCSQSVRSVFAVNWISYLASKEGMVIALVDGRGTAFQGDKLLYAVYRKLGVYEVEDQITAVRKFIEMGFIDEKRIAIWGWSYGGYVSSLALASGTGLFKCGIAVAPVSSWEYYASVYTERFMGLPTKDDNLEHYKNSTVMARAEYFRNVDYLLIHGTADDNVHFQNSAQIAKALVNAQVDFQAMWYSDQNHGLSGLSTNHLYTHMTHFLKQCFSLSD
measurement-notes: hFAP Binding Assay
measure: koff (s⁻¹)
Give just the number in s⁻¹; leave the unit off.

> print(dat)
                                  structure  value.measured
1  CC(=O)N1CC2(C1)CN(c1ccc3nccc(C(=O)NCC(=O)N4CSC[C@H]4C#N)c3c1)C2         1.4e-05
2  N#C[C@@H]1CSCN1C(=O)CNC(=O)c1ccnc2ccc(N3CCC(C(F)(F)F)CC3)cc12         0.00016

Task: State its koff for this compound: N#C[C@@H]1CSCN1C(=O)CNC(=O)c1ccnc2ccc(-c3cccnc3)cc12
Output: 0.00021

Task: State its koff for this compound: N#C[C@@H]1CSCN1C(=O)CNC(=O)c1ccnc2ccc(N3CC[C@@H](F)C3)cc12
Output: 0.00019
